The values you see were collected from patent US11203613B2.

- TARGET_UNDER_TEST: Human Constitutive (Hu C-20S) β5 Active Subunit (Homo sapiens)
- PROCEDURE_SUMMARY: IC50 determination, human constitutive 20S proteasome β5c (suc-LLVY-AMC hydrolysis)
- Type: biochemical
- RUN_PARAMETERS: Table 3; IC50 against human constitutive β5 active subunit; read-out: Hu-C20S β5
VALUE_TYPE: pIC50
The meaning of pIC50 here: minus log10 of the concentration in molar units.

INSERT INTO measurements (compound, meas_value) VALUES
  ('C[C@H](NC(=O)[C@H](CC(=O)N1CCCC[C@@H]1C)NC(=O)OCc1ccccc1)c1nc2c(F)cccc2[nH]1 [CEN-50]', 4.83),
  ('C[C@H](NC(=O)[C@H](CC(=O)N1CCCC[C@@H]1C)NC(=O)c1cn(C)cn1)c1ncc(-c2ccc(F)cc2F)[nH]1 [CEN-93]', 4.96),
  ('C[C@H](NC(=O)[C@H](CC(=O)N1CCCC[C@@H]1C)NC(=O)C1CCC1)c1ncc(-c2ccc(F)cc2F)[nH]1 [CEN-82]', 5.62),
  ('CC[C@H]1CCCCN1C(=O)C[C@H](Nc1nc(C(C)C)no1)C(=O)N[C@@H](C)c1nc2c(F)cccc2[nH]1 [CEN-8]', 5.44),
  ('CC[C@H]1CCCCN1C(=O)C[C@H](NC(=O)CCC(C)C)C(=O)N[C@@H](C)c1nc2c(F)cccc2[nH]1 [CEN-3]', 4.97);

Asked: For CC[C@H]1CCCCN1C(=O)C[C@H](NC(=O)N(C)CC(C)C)C(=O)N[C@@H](C)c1nc2c(F)cccc2[nH]1 [CEN-15] , write its pIC50.
Given back: 5.30

###

- TARGET_UNDER_TEST: Mtb20SOG (Mycobacterium tuberculosis)
- Sequence (P9WHT9 58-291): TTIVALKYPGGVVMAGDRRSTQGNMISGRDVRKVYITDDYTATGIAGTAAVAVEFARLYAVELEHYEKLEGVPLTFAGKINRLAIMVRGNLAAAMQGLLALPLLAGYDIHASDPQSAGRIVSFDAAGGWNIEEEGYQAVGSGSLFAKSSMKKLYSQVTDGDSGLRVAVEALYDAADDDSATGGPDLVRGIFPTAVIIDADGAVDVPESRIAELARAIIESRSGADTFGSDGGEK
- PROCEDURE_SUMMARY: biochemical
- RUN_PARAMETERS: Table 2; several values in a cell are repeat determinations
pIC50: −log10 of the molar value.
pIC50 of 6 or higher: TRUE. Under 6: FALSE.

INSERT INTO measurements (mol_smiles, target_under_test, label) VALUES
  ('CC[C@H]1CCCCN1C(=O)C[C@H](NC(=O)N1CCOCC1)C(=O)N[C@@H](C)c1nc2c(F)cccc2[nH]1', 'Mtb20SOG (Mycobacterium tuberculosis)', 'FALSE');

Asked: Is reported pIC50 greater than or equal to 6 here: `C[C@H](NC(=O)[C@H](CC(=O)N1CCCC[C@@H]1C)NCC(=O)c1ccccc1)c1ncc(-c2ccc(F)cc2F)[nH]1`
Given back: FALSE

Asked: Is reported pIC50 greater than or equal to 6 here: `C[C@H](NC(=O)[C@H](CC(=O)N1CCCC[C@@H]1C)NC(=O)CCc1ccccc1)C(=O)NCc1cccc(N)c1`
Given back: TRUE

Asked: Is reported pIC50 greater than or equal to 6 here: `CC(C)CCC(=O)N[C@@H](CC(=O)N1CCCC1)C(=O)N[C@@H](C)c1ncc(-c2ccc(F)cc2F)[nH]1`
Given back: FALSE

Asked: Is reported pIC50 greater than or equal to 6 here: `C[C@H](NC(=O)[C@H](CC(=O)N1CCCC[C@@H]1C)NC(=O)CCc1ccccc1)C(=O)NCc1cccc(NC(=O)OC(C)(C)C)c1`
Given back: FALSE

Asked: Is reported pIC50 greater than or equal to 6 here: `C[C@H](NC(=O)[C@@H](N)CC(=O)N1CCC[C@@H]1c1ccccc1)c1ncc(-c2ccccc2F)[nH]1`
Given back: FALSE

Asked: Is reported pIC50 greater than or equal to 6 here: `C[C@H](NC(=O)[C@H](CC(=O)N1CCC[C@@H]1c1ccccc1)NC(=O)CCC(C)(C)C)c1nc2ccccc2[nH]1`
Given back: TRUE

Asked: Is reported pIC50 greater than or equal to 6 here: `C[C@H](NC(=O)[C@H](CC(=O)N1CCCC[C@@H]1C)NS(=O)(=O)CCC1CC1)c1ncc(-c2ccc(F)cc2F)[nH]1`
Given back: TRUE

Asked: Is reported pIC50 greater than or equal to 6 here: `CC[C@H]1CCCCN1C(=O)C[C@H](NC(=O)[C@@H]1C[C@H]1c1ccccc1)C(=O)N[C@@H](C)c1nc2c(F)cccc2[nH]1`
Given back: TRUE

Asked: Is reported pIC50 greater than or equal to 6 here: `CC(C)CS(=O)(=O)N[C@@H](CC(=O)N1CCCC[C@@H]1C)C(=O)N[C@@H](C)c1ncc(-c2ccc(F)cc2F)[nH]1`
Given back: TRUE

Asked: Is reported pIC50 greater than or equal to 6 here: `CC[C@H]1CCCCN1C(=O)C[C@H](NC(=O)N(C)CC(C)C)C(=O)N[C@@H](C)c1nc2c(F)cccc2[nH]1`
Given back: FALSE

Asked: Is reported pIC50 greater than or equal to 6 here: `CC(C)CCC(=O)N[C@@H](CC(=O)N1CCCC[C@@H]1C)C(=O)N[C@H](C)c1nc2ccccc2[nH]1`
Given back: FALSE

Asked: Is reported pIC50 greater than or equal to 6 here: `C[C@H](NC(=O)[C@H](CC(=O)N1CCCC[C@@H]1C)NS(=O)(=O)Cc1ccccc1)c1ncc(-c2ccc(F)cc2F)[nH]1`
Given back: TRUE

###

- TARGET_UNDER_TEST: Mtb20SOG (Mycobacterium tuberculosis)
- PROCEDURE_SUMMARY: biochemical
Each entry below lists one item and its recorded pIC50 value.
The meaning of pIC50 here: minus log10 of the concentration in molar units.

Solved cases below.
INSERT INTO measurements (compound, target_under_test, meas_value) VALUES
  ('CC(C)CCC(=O)N[C@@H](CC(=O)N1CCCCCC1)C(=O)N[C@@H](C)c1nc(-c2ccc(F)cc2F)c[nH]1', 'Mtb20SOG (Mycobacterium tuberculosis)', 6.18),
  ('CC(C)COC(=O)NC(CC(=O)N1CCCCC1C)C(=O)NC(C)c1nc2c(F)cccc2[nH]1 (stereo not drawn)', 'Mtb20SOG (Mycobacterium tuberculosis)', 5.94);

# ---- query compound ----
Asked: For `CC(C)CCC(=O)N[C@@H](CC(=O)N1CCCC[C@H]1C)C(=O)N[C@@H](C)c1nc(-c2ccc(F)cc2F)c[nH]1` , write its pIC50.
Given back: 6.00

###

- TARGET_UNDER_TEST: UniProt:P9WHT9
- PROCEDURE_SUMMARY: biochemical
- RUN_PARAMETERS: Table 2; several values in a cell are repeat determinations
Each entry below lists one item and its recorded pIC50 value.
The meaning of pIC50 here: minus log10 of the concentration in molar units.

INSERT INTO assay_data (compound, value_type, meas_value) VALUES
  ('C[C@H](NC(=O)[C@H](CC(=O)N1CCCC[C@@H]1C)NC(=O)CC1CC1)c1ncc(Cc2ccccc2)[nH]1 [CF-503136]', 'pIC50', 6.03),
  ('CC[C@H]1CCCCN1C(=O)C[C@H](Nc1nc2ccccc2s1)C(=O)N[C@@H](C)c1nc2c(F)cccc2[nH]1 [CF-503445]', 'pIC50', 5.93),
  ('C[C@H](NC(=O)[C@H](CC(=O)N1CCCC1)NC(=O)CCC(C)(C)C)c1ncc(-c2ccc(F)cc2F)[nH]1 [CF-503160]', 'pIC50', 6.10);

# ---- query compound ----
Asked: For CC[C@H]1CCCCN1C(=O)C[C@H](NC(=O)N1CCCCC1)C(=O)N[C@@H](C)c1nc2c(F)cccc2[nH]1 [CF-503454] , write its pIC50.
Given back: 6.12
